# study-system: human DLL3 on DMS-153 cells (human) (UniProt Q9NYJ7)
# Sequence (Q9NYJ7 27-618 limits assumed): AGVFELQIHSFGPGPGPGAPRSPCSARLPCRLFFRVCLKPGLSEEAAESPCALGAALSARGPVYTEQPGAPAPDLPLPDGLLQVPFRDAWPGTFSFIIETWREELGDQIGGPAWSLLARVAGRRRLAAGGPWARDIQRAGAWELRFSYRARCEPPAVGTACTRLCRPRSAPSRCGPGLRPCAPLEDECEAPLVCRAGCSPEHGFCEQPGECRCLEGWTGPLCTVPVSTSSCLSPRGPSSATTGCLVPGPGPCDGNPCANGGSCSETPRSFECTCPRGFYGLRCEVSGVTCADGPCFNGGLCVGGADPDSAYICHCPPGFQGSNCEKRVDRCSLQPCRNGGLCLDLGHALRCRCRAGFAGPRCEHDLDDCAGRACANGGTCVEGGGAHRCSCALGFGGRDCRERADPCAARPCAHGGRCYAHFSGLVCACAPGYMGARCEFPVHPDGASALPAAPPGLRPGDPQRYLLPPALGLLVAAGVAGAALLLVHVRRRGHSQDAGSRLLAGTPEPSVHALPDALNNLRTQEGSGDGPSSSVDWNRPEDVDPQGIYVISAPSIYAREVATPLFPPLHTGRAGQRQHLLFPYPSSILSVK
# test-details: cell-based or functional assay
measure: TDCC EC50 (CHO expressed, purified protein; method of Example 2, DMS-153 cells) (nM)
Write down the numeric answer in nM and omit the unit.

Some binders with known TDCC EC50 (CHO expressed, purified protein; method of Example 2, DMS-153 cells) results, for comparison:
anti-DLL3 trispecific protein, DLL3 binder 4D09 (protein, part only; not given: anti-CD3 fragment and anti-albumin domain, part only) chain, part: EVQLVESGGGLVQPGGSLTLSCAASGSSVKFLSMAWYRQAPGKKRELVAGISADGSTDYILSVKGRFTISRDNAKNSVYLQMNSLRAEDTAVYYCYAYEWTTRYTYWGQGTLVTVSSGGGGSGGGSGGGGSGGGSHHHHHH :: 0.06
anti-DLL3 trispecific protein, DLL3 binder 1H012 (protein, part only; not given: CD3 binder and albumin binder, part only) chain, part: EVQLVESGGGLVQPGGSLTLSCVASGSTSSINAMGWYRRAPGKQRELVAGISSDGSKVYVDSVKGRFTISRDNAKNSVYLQMNSLRAEDTAVYYCYYFRTVSGSSMPYWGQGTLVTVSSGGGGSGGGSGGGGSGGGSHHHHHH :: 0.063
anti-DLL3 trispecific protein, DLL3 binder 4H11-M34L (protein, part only; not given: anti-CD3 and anti-albumin domains, part only) chain, part: EVQLVESGGGLVQPGGSLTLSCAASGSSVSRLSLAWYRQAPGKKRELVAGISVDGSTDYIDSVKGRFTISRDNAKNSVYLQMNSLRAEDTAVYYCYAYRWTTRLTYWGQGTLVTVSSGGGGSGGGSGGGGSGGGSHHHHHH :: 0.13
anti-DLL3 trispecific protein, DLL3 binder 2H02 (protein, part only; not given: anti-CD3 fragment and anti-albumin domain, part only) chain, part: EVQLVESGGGLVQPGGSLTLSCVASGSTSSINAMAWYRRAPGKQRELAAGISSDGSKVYADSVKGRFTISRDNAKNSVYLQMNSLRAEDTAVYYCYYFHTVSGSSMRYWGQGTLVTVSSGGGGSGGGSGGGGSGGGSHHHHHH :: 0.096
anti-DLL3 trispecific protein, DLL3 binder 2E05 (protein, part only; not given: CD3 binder and albumin binder, part only) chain, part: EVQLVESGGGLVQPGGSLTLSCVASGSPSSINAYGWYRRAPGKQRELVAGISSDGSKVYSDSVKGRFTISRDNAKNSVYLQMNSLRAEDTAVYYCYYFRTVSGSSMSYWGQGTLVTVSSGGGGSGGGSGGGGSGGGSHHHHHH :: 0.072

Query: If you can, please state the reported TDCC EC50 (CHO expressed, purified protein; method of Example 2, DMS-153 cells) value of anti-DLL3 trispecific protein, DLL3 binder 4D09-M34L (protein, part only; not given: anti-CD3 fragment and anti-albumin sdAb, part only) chain, part: EVQLVESGGGLVQPGGSLTLSCAASGSSVKFLSLAWYRQAPGKKRELVAGISADGSTDYILSVKGRFTISRDNAKNSVYLQMNSLRAEDTAVYYCYAYEWTTRYTYWGQGTLVTVSSGGGGSGGGSGGGGSGGGSHHHHHH .
Result: 0.054

Query: If you can, please state the reported TDCC EC50 (CHO expressed, purified protein; method of Example 2, DMS-153 cells) value of anti-DLL3 trispecific protein, DLL3 binder 2E05-M106Y (protein, part only; not given: CD3 binder and albumin binder, part only) chain, part: EVQLVESGGGLVQPGGSLTLSCVASGSPSSINAYGWYRRAPGKQRELVAGISSDGSKVYSDSVKGRFTISRDNAKNSVYLQMNSLRAEDTAVYYCYYFRTVSGSSYSYWGQGTLVTVSSGGGGSGGGSGGGGSGGGSHHHHHH .
Result: 0.063
